Just for reference, paper PMC11912907 is where these values come from.

# Assayed system: T1, ProQ (minimal ProQ, FinO domain with short N- and C-terminal extensions) (Neisseria meningitidis, UniProt Q9JY98 1-141)
# T1 sequence: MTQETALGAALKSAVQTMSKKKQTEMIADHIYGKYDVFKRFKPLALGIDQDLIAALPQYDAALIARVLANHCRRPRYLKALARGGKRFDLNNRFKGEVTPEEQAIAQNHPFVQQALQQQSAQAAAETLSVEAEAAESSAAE
# Protocol text: EMSA; max bound 64%; 25 mM Tris pH 7.5, 150 mM NaCl, 5% glycerol, 1 mM MgCl2, 1 nM 32P-RNA, ProQ up to 50 nM, 30 min at room temperature; 6% native gel at 4 C
# Assay context: protein: recombinant; tags: N-terminal His6-TEV, cleaved; one extra N-terminal Ser remains; label: 5'-32P; hairpin, GAAA loop
Measurement name: pKd
Notebook: values listed as pKd are -log10 of the concentration (mol/L).

## Input Data request, read-out pKd, for GGGAUUUCAGUUUGAAAGCAAAGCGAAAGCUUUUUU (structured_RNA) [rpmG-loop-36]
## Output 9.89
